These measurements were taken from ChEMBL document CHEMBL4513141.

Readings of Inhibition for the listed molecules
# Test system: Escherichia coli
# runParameters: Concentration 20 uM; ASSAY_TEST Inhibition of Bacterial Growth; detection method Absorption (OD600); MEDIA CAMHB; plate type 384well; NBS; CORNING #3640; time 18 hr
# Description: Antibacterial activity against Escherichia coli ATCC 25922 (CO-ADD:GN_001); MIC in CAMBH media using NBS plates, by OD(600)
Potency and affinity values are given separately.
Report the value in % with no unit label.

Solved entries (count: 2):
> print(dat)
                                   molecule  unitname  testresult
1  COC(=O)CCc1ccc(OCC(O)CNC(C)C)cc1.Cl (stereo not drawn) [ESMOLOL HYDROCHLORIDE]         %       -0.36
2  C[C@@H]1C[C@H]2[C@@H]3C[C@H](F)C4=CC(=O)C(Cl)=C[C@]4(C)[C@@]3(F)[C@@H](O)C[C@]2(C)[C@@]1(O)C(=O)CO [HALOMETASONE]         %        4.02

# next molecule below
Requested field: Inhibition. Item: Cc1occc(=O)c1O [MALTOL]
4.13
